Test: Solubility of each salt of T-3811 in distilled water
Format: physicochemical
Details: pH given beside the solubility of each salt in distilled water
property: pH
# answer = number (no unit)

C[C@H](O)C(=O)O.C[C@H]1NCc2cc(-c3ccc4c(=O)c(C(=O)O)cn(C5CC5)c4c3OC(F)F)ccc21 [L-lactate] | 4.40
CC(=O)O.C[C@H]1NCc2cc(-c3ccc4c(=O)c(C(=O)O)cn(C5CC5)c4c3OC(F)F)ccc21 [Acetate] | 4.22

For reference, reported pH for C[C@H]1NCc2cc(-c3ccc4c(=O)c(C(=O)O)cn(C5CC5)c4c3OC(F)F)ccc21.O=C(O)CC(O)(CC(=O)O)C(=O)O [Citrate] stands at 3.90
